Entry source: patent US7335723B2

Quick list: MCH-2R Agonist Activation % per entry.
- Measurement target: human MCH-2R (Homo sapiens, UniProt Q969V1)
- Sequence (Q969V1 whole entry): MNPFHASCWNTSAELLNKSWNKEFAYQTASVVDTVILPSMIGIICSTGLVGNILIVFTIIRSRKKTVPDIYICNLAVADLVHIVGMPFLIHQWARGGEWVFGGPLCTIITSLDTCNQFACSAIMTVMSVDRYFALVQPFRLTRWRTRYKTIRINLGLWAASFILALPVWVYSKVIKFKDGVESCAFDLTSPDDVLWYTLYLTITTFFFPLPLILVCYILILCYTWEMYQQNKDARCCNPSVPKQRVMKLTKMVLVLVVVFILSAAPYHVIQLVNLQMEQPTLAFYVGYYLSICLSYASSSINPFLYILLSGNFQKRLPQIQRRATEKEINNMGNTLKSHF
- Test name: Aequorin bioluminescence functional assay, MCH-2R agonist activity
- Assay context: 293-AEQ17 cells expressing human MCH-2R
Where a SMILES comes first, the peptide text is derived from it. Bridges are numbered along the chain shown (N, C = ends). [ ]: non-standard residue; d: D form. The star is where a group is joined. Pentanoyl(5-guanidino) = NC(N)=NCCCCC(=O)*; Nle = CCCC[C@H](N)C(=O)O; Abu = CC[C@H](N)C(=O)O; Ava = NCCCCC(=O)O
Give the number; % is assumed, so skip it.

>  <Molecule>
CC[C@@H]1NC(=O)[C@@H](NC(=O)CCCCNC(=N)N)CSSC[C@@H](C(N)=O)NC(=O)CCCCNC(=O)CCCCNC(=O)[C@H](Cc2ccc(O)cc2)NC(=O)[C@H](C(C)C)NC(=O)[C@H](CCCNC(=N)N)NC(=O)CNC(=O)[C@H](CC(C)C)NC1=O [SEQ. ID. NO. 17] ({Pentanoyl(5-guanidino)}-C[Abu]LGRVY[Ava][Ava]C-NH2; disulfide 1-10; C-terminus assumed)

>  <MCH-2R Agonist Activation % [%]>
7

$$$$

[ask] Using known records, supply MCH-2R Agonist Activation % for CSCC[C@@H]1NC(=O)[C@@H](NC(=O)[C@@H](CCCNC(=N)N)NC(C)=O)CSSC[C@@H](C(N)=O)NC(=O)CCCCNC(=O)CCCCNC(=O)[C@H](Cc2ccc(O)cc2)NC(=O)[C@H](C(C)C)NC(=O)[C@H](CCCNC(=N)N)NC(=O)CNC(=O)[C@H](CC(C)C)NC1=O [SEQ. ID. NO. 10] (Ac-[dR]CMLGRVY[Ava][Ava]C-NH2; disulfide 2-11 (inferred); C-terminus assumed)
[reply] 18

[ask] For the molecule CCCC[C@@H]1NC(=O)[C@@H](NC(=O)CCCCNC(=N)N)CSSC[C@@H](C(N)=O)NC(=O)CCCCNC(=O)CCCCNC(=O)[C@H](Cc2ccc(O)cc2)NC(=O)[C@H](C(C)C)NC(=O)[C@H](CCCNC(=N)N)NC(=O)CNC(=O)[C@H](CC(C)C)NC1=O [SEQ. ID. NO. 16] ({Pentanoyl(5-guanidino)}-C[Nle]LGRVY[Ava][Ava]C-NH2; disulfide 1-10; C-terminus assumed) , report MCH-2R Agonist Activation %.
[reply] 59

[ask] State its MCH-2R Agonist Activation % for this molecule: CSCC[C@@H]1NC(=O)[C@@H](NC(=O)CCCCNC(=N)N)CSSC[C@@H](C(N)=O)NC(=O)CCCCNC(=O)CCCCNC(=O)[C@H](Cc2ccc(O)cc2)NC(=O)[C@H](C(C)C)NC(=O)[C@H](CCCNC(=N)N)NC(=O)CNC(=O)[C@H](CC(C)C)NC1=O
[reply] 91

* * *

- Measurement target: rat MCH-1R (Rattus norvegicus)
- Sequence (P97639 whole entry): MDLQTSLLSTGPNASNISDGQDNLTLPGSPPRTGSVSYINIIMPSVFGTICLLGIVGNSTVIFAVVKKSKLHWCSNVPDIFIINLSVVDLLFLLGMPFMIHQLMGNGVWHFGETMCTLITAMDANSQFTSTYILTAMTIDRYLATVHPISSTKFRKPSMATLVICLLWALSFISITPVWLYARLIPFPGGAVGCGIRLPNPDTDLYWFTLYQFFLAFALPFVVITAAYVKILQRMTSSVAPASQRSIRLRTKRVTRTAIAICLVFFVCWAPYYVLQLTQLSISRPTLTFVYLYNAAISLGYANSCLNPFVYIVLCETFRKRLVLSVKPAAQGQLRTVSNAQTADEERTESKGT
- Test name: Antagonist assay, 293-AEQ17 cells expressing rat MCH-1R
- Format: cell-based
- Parameters: expressed in transfected cells; host or cells: 293-AEQ17 (aequorin-expressing HEK-293 reporter line)
- Assay context: determined per Trends in Pharmacol. Sci. 14:237-239, 1993
Where a SMILES comes first, the peptide text is derived from it. Bridges are numbered along the chain shown (N, C = ends). [ ]: non-standard residue; d: D form. The star is where a group is joined. Pentanoyl(5-guanidino) = NC(N)=NCCCCC(=O)*; Nle = CCCC[C@H](N)C(=O)O; Ava = NCCCCC(=O)O
The molecules listed here are annotated with their Kb.
Quick note: give the figure in nM, leave out the unit.

>  <Molecule>
CSCC[C@@H]1NC(=O)[C@@H](NC(=O)[C@H](CCCNC(=N)N)NC(C)=O)CSSC[C@@H](C(N)=O)NC(=O)CCCCNC(=O)CCCCNC(=O)[C@H](Cc2ccc(O)cc2)NC(=O)[C@H](C(C)C)NC(=O)[C@H](CCCNC(=N)N)NC(=O)CCCCNC(=O)CCCCNC1=O [SEQ. ID. NO. 30] (Ac-RCM[Ava][Ava]RVY[Ava][Ava]C-NH2; disulfide 2-11 (inferred); C-terminus assumed)

>  <Measurement target>
rat MCH-1R (Rattus norvegicus)

>  <Kb, nM>
4.6

$$$$
>  <Molecule>
CSCC[C@@H]1NC(=O)[C@@H](NC(=O)CCCCNC(=N)N)CSSC[C@@H](C(N)=O)NC(=O)CCCCNC(=O)CCCCNC(=O)[C@H](Cc2ccc(O)cc2)NC(=O)[C@H](C)NC(=O)[C@H](CCCNC(=N)N)NC(=O)CNC(=O)[C@H](CC(C)C)NC1=O [SEQ. ID. NO. 20] ({Pentanoyl(5-guanidino)}-CMLGRAY[Ava][Ava]C-NH2; disulfide 1-10; C-terminus assumed)

>  <Measurement target>
rat MCH-1R (Rattus norvegicus)

>  <Kb, nM>
2

$$$$
>  <Molecule>
CC(C)C[C@@H]1NC(=O)[C@H](C)NC(=O)[C@@H](NC(=O)CCCCNC(=N)N)CSSC[C@@H](C(N)=O)NC(=O)CCCCNC(=O)CCCCNC(=O)[C@H](Cc2ccc(O)cc2)NC(=O)[C@H](C(C)C)NC(=O)[C@H](CCCNC(=N)N)NC(=O)CNC1=O [SEQ. ID. NO. 19] ({Pentanoyl(5-guanidino)}-CALGRVY[Ava][Ava]C-NH2; disulfide 1-10 (inferred); C-terminus assumed)

>  <Measurement target>
rat MCH-1R (Rattus norvegicus)

>  <Kb, nM>
29

$$$$

Shift focus to the following entry.
[ask] Input CCCC[C@@H]1NC(=O)[C@@H](NC(=O)CCCCNC(=N)N)CSSC[C@@H](C(N)=O)NC(=O)CCCCNC(=O)CCCCNC(=O)[C@H](Cc2ccc(O)cc2)NC(=O)[C@H](C(C)C)NC(=O)[C@H](CCCNC(=N)N)NC(=O)CNC(=O)[C@H](CC(C)C)NC1=O [SEQ. ID. NO. 16] ({Pentanoyl(5-guanidino)}-C[Nle]LGRVY[Ava][Ava]C-NH2; disulfide 1-10; C-terminus assumed) , output reported Kb.
[reply] 6
